tested.system: TrkB (Homo sapiens (Human), UniProt Q16620 32-430)
Sequence (Q16620 32-430 limits assumed): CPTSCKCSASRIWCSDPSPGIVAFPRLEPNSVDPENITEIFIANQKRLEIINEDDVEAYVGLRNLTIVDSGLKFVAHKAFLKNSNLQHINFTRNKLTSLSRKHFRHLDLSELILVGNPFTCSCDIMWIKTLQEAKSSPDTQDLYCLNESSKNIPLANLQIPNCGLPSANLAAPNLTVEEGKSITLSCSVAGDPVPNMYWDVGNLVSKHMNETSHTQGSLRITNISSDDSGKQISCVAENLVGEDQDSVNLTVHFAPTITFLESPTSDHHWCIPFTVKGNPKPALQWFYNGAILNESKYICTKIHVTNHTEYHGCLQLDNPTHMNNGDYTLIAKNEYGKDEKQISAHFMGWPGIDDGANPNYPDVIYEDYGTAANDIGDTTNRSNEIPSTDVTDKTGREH
test.protocol: koff of Fab at 25 C; T1/2=Log2/koff
property.name: T1/2 (min)
Report as a plain number; the unit min is understood.

Look over these answered cases.
binder | value.observed
16-A10 (Fab, V domains shown, Fab) VH: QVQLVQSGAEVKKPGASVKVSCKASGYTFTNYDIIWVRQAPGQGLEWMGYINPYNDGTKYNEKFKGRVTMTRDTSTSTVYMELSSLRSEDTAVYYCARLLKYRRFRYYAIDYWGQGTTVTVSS VL: DIQMTQSPSSLSASVGDRVTITCRTSENVYSNLAWYQQKPGKAPKLLIYAASNLQSGVPSRFSGSGSGTDFTFTISSLQPEDIATYYCQHFWYSPWTFGQGTKLEIK | 6
6-D12 (Fab, V domains shown, Fab) VH: QVQLVQSGAEVKKPGASVKVSCKASGYTFTNYVILWVRQAPGQGLEWMGYINPYNDGTKYNEKFKGRVTMTRDTSTSTVYMELSSLRSEDTAVYYCARLLKYRRFRYYAIDYWGQGTTVTVSS VL: DIQMTQSPSSLSASVGDRVTITCRASENVYSNLAWYQQKPGKAPKLLIYAASNLQSGVPSRFSGSGSGTDFTFTISSLQPEDIATYYCQHFWASPFTFGQGTKLEIK | 1.7

Exercise: // returns reported T1/2 for input 3-B11 (Fab, V domains shown, Fab) VH: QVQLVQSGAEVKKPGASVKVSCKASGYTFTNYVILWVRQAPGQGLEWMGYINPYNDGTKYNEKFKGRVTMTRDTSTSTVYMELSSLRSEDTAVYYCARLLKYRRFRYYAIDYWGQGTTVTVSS VL: DIQMTQSPSSLSASVGDRVTITCRASENVYSNLAWYQQKPGKAPKLLIYAASNLQSGVPSRFSGSGSGTDFTFTISSLQPEDIATYYCQHFWYSGFTFGQGTKLEIK
Key: 0.87
